# TARGET OR TEST SYSTEM: Calcitonin gene-related peptide type 1 receptor (Homo sapiens, UniProt O60894+Q16602)
# Sequence (Q16602 whole entry, one chain of several): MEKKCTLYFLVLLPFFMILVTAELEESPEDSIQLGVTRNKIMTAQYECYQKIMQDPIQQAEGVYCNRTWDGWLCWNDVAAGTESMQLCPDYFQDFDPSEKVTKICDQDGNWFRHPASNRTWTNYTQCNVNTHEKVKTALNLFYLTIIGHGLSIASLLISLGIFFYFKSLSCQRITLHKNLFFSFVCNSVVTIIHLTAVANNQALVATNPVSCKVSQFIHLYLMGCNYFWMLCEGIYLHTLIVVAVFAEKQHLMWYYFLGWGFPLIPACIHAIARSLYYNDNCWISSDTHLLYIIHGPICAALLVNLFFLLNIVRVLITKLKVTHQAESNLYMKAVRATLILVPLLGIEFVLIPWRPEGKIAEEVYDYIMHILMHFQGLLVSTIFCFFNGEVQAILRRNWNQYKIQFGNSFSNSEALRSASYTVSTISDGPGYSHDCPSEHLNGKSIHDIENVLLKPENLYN
# TEST DETAILS: Displacement of [125I]-hCGRP from human CGRP receptor expressed in HEK293 cells
MEASUREMENT NAME: Ki (nM)

Examples with answers:
| QUERY SMILES | Ki, nM |
| --- | --- |
| CN1C[C@@](C)(c2cc(F)cc(F)c2)N(CCCc2cnc3c(c2)C[C@@]2(C3)C(=O)Nc3ncccc32)C(=O)C12CCCC2 | 0.045 |
| CN1C[C@@](C)(c2cc(F)cc(F)c2)N(CC(=O)Nc2ccc3c(c2)C[C@@]2(C3)C(=O)Nc3ncccc32)C(=O)C12CCCC2 | 0.046 |
| CN1C[C@@](C)(c2cc(F)cc(F)c2)N(CC(=O)Nc2cnc3c(c2)C[C@@]2(C3)C(=O)Nc3ncccc32)C(=O)C12CCCC2 | 0.017 |
| CN1C[C@@](C)(c2cc(F)cc(F)c2)N(CC#Cc2ccc3c(c2)C[C@@]2(C3)C(=O)Nc3ncccc32)C(=O)C12CCCC2 | 0.11 |
| CC1(C)NC[C@@H](c2cc(F)cc(F)c2)N(CC(=O)Nc2ccc3c(c2)C[C@@]2(C3)C(=O)Nc3ncccc32)C1=O | 0.034 |

I. CN1C[C@@](C)(c2cc(F)cc(F)c2)N(C/C=C/c2cnc3c(c2)C[C@@]2(C3)C(=O)Nc3ncccc32)C(=O)C12CCCC2
II. CC1(C)NC[C@@](C)(c2cc(F)cc(F)c2)N(CC(=O)Nc2ccc3c(c2)C[C@@]2(C3)C(=O)Nc3ncccc32)C1=O
Which value of Ki is numerically greater: that of I or that of II ? // return label of chosen record
II
(II: 0.11 nM, I: 0.021 nM)

* * *

# TEST DETAILS: Drug uptake in iv dosed rhesus monkey cerebellum after 80 mins
# Type: ADME, organism-based, Macaca mulatta
# RUN PARAMETERS: in vivo
MEASUREMENT NAME: SUV

| QUERY SMILES | SUV |
| --- | --- |
| CN1C[C@@H](c2cc(F)cc(F)c2)N(CC(=O)Nc2ccc3c(c2)C[C@@]2(C3)C(=O)Nc3ncccc32)C(=O)C1(C)C | 0.7 |
| CN1C[C@@](C)(c2cc(F)cc(F)c2)N(CC(=O)Nc2ccc3c(c2)C[C@@]2(C3)C(=O)Nc3ncccc32)C(=O)C12CCCC2 | 1.7 |
| CN1C[C@@](C)(c2cc(F)cc(F)c2)N(CCCc2cnc3c(c2)C[C@@]2(C3)C(=O)Nc3ncccc32)C(=O)C12CCCC2 | 1 |
| CN1C[C@@](C)(c2cc(F)cc(F)c2)N(CC(=O)Nc2ccc3c(c2)C[C@@]2(C3)C(=O)Nc3ncccc32)C(=O)C1(C)C | 1.2 |
| CN1C[C@@](C)(c2cc(F)cc(F)c2)N(C/C=C/c2ccc3c(c2)C[C@@]2(C3)C(=O)Nc3ncccc32)C(=O)C12CCCC2 | 1 |

P. CN1C[C@@](C)(c2cc(F)cc(F)c2)N(C/C=C/c2cnc3c(c2)C[C@@]2(C3)C(=O)Nc3ncccc32)C(=O)C12CCCC2
Q. CN1C[C@@](C)(c2cc(F)cc(F)c2)N(CCCc2ccc3c(c2)C[C@@]2(C3)C(=O)Nc3ncccc32)C(=O)C12CCCC2
Given the listed items, does P or Q have the lesser reported SUV? // return label of chosen record
Q

* * *

# TEST DETAILS: Apparent passive permeability across pig LLC-PK1 cells
# Assay type: ADME, cell-based, Sus scrofa
MEASUREMENT NAME: Papp (×10⁻⁶ cm/s)

| COMPOUND | Papp [×10⁻⁶ cm/s] |
| --- | --- |
| CN1C[C@@](C)(c2cc(F)cc(F)c2)N(C/C=C/c2cnc3c(c2)C[C@@]2(C3)C(=O)Nc3ncccc32)C(=O)C12CCCC2 | 21 |

P. O=C(CN1C(=O)C2(CCCC2)NC[C@H]1c1cc(F)cc(F)c1)Nc1ccc2c(c1)C[C@@]1(C2)C(=O)Nc2ncccc21 [MK3207]
Q. CN1C[C@@](C)(c2cc(F)cc(F)c2)N(CC#Cc2cnc3c(c2)C[C@@]2(C3)C(=O)Nc3ncccc32)C(=O)C12CCCC2
Which value of Papp is numerically greater: that of P or that of Q ? // return label of chosen record
P

* * *

# Test system: CGRP receptor (Macaca mulatta)
# TEST DETAILS: Ratio of drug uptake in iv dosed rhesus monkey cerebellum to drug uptake in iv dosed rhesus monkey white matter
# RUN PARAMETERS: in vivo
MEASUREMENT NAME: Ratio

| QUERY SMILES | MEAS VALUE |
| --- | --- |
| CN1C[C@@](C)(c2cc(F)cc(F)c2)N(CCCc2cnc3c(c2)C[C@@]2(C3)C(=O)Nc3ncccc32)C(=O)C12CCCC2 | 1.7 |
| CN1C[C@@](C)(c2cc(F)cc(F)c2)N(C/C=C/c2cnc3c(c2)C[C@@]2(C3)C(=O)Nc3ncccc32)C(=O)C12CCCC2 | 1.7 |
| CN1C[C@@](C)(c2cc(F)cc(F)c2)N(CC(=O)Nc2ccc3c(c2)C[C@@]2(C3)C(=O)Nc3ncccc32)C(=O)C1(C)C | 1.7 |
| CN1C[C@@](C)(c2cc(F)cc(F)c2)N(CC(=O)Nc2ccc3c(c2)C[C@@]2(C3)C(=O)Nc3ncccc32)C(=O)C12CCCC2 | 2 |

* * *

# TARGET OR TEST SYSTEM: UniProt P08183
# Sequence (P08183 whole entry): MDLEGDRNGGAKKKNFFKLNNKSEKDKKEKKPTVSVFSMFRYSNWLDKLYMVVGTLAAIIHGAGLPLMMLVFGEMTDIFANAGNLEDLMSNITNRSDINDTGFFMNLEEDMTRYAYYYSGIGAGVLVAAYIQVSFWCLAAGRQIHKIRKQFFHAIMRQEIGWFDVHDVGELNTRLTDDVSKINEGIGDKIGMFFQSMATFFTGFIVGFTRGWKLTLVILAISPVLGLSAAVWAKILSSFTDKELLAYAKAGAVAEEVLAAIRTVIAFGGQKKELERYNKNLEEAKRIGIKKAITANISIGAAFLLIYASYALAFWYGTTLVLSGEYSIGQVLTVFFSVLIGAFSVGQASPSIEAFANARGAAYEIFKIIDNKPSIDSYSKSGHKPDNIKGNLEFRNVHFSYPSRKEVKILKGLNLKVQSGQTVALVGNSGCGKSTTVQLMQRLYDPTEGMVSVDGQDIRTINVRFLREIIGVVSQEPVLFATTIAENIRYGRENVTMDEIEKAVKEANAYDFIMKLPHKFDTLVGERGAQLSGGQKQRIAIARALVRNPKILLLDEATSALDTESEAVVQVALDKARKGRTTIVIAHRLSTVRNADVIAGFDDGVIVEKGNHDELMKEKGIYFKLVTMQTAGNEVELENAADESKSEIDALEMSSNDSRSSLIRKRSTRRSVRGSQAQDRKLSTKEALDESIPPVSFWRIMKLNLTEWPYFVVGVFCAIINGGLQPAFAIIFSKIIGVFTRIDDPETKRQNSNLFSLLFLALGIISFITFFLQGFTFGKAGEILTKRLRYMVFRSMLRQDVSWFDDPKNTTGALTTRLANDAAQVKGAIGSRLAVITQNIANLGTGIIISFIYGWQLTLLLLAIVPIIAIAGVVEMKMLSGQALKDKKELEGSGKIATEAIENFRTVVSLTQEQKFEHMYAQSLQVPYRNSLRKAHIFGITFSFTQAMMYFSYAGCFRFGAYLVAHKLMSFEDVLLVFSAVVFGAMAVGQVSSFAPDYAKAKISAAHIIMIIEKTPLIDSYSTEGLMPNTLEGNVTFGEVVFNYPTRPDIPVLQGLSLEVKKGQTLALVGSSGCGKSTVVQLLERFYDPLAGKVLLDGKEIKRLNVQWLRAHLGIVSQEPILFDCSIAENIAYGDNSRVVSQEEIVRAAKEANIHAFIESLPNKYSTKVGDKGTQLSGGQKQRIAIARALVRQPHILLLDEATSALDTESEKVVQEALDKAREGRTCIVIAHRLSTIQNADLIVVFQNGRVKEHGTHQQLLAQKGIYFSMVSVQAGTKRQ
# TEST DETAILS: Efflux ratio of human MDR1-mediated drug transport from basolateral to apical side over apical to basolateral side in pig LLC cells expressing human MDR1 at 5 uM
# Type: ADME, cell-based
# RUN PARAMETERS: LLC-PK1
MEASUREMENT NAME: efflux ratio at 5 µM

Examples with answers:
| QUERY SMILES | efflux ratio at 5 µM |
| --- | --- |
| O=C(CN1C(=O)C2(CCCC2)NC[C@H]1c1cc(F)cc(F)c1)Nc1ccc2c(c1)C[C@@]1(C2)C(=O)Nc2ncccc21 | 25 |
| CN1C[C@@](C)(c2cc(F)cc(F)c2)N(CCCc2cnc3c(c2)C[C@@]2(C3)C(=O)Nc3ncccc32)C(=O)C12CCCC2 | 1.8 |

I. O=C(N[C@@H]1CC[C@@H](c2cccc(F)c2F)CN(CC(F)(F)F)C1=O)N1CCC(n2c(=O)[nH]c3ncccc32)CC1
II. CN1C[C@@](C)(c2cc(F)cc(F)c2)N(CC#Cc2cnc3c(c2)C[C@@]2(C3)C(=O)Nc3ncccc32)C(=O)C12CCCC2
Which value of efflux ratio at 5 µM is numerically greater: that of I or that of II ? // return label of chosen record
I
(I: 24, II: 1.5)

* * *

# TEST DETAILS: Binding affinity to rhesus monkey CGRP receptor by radioligand binding assay
# Design: species or system Macaca mulatta
MEASUREMENT NAME: Ki (pM)
Report only the number, with the unit pM understood.

Reported Ki of CN1C[C@@](C)(c2cc(F)cc(F)c2)N(CC(=O)Nc2ccc3c(c2)C[C@@]2(C3)C(=O)Nc3ncccc32)C(=O)C12CCCC2 : 33

* * *

# TARGET OR TEST SYSTEM: Calcitonin gene-related peptide type 1 receptor (Homo sapiens, UniProt O60894+Q16602)
# TEST DETAILS: Antagonist activity at CGRP receptor (unknown origin) by cell based cAMP assay in presence of human serum
# Assay type: functional
MEASUREMENT NAME: pIC50
Scale: pIC50 equals -log10([C]), with [C] in mol/L.

Reported pIC50 of CN1C[C@@](C)(c2cc(F)cc(F)c2)N(CC(=O)Nc2ccc3c(c2)C[C@@]2(C3)C(=O)Nc3ncccc32)C(=O)C12CCCC2 : 9.41

* * *

# TEST DETAILS: Ratio of AUC in rhesus monkey CSF to AUC in rhesus monkey plasma
# Format: ADME, Macaca mulatta
MEASUREMENT NAME: Ratio AUC (%)

Examples with answers:
| QUERY SMILES | MEAS VALUE |
| --- | --- |
| O=C(CN1C(=O)C2(CCCC2)NC[C@H]1c1cc(F)cc(F)c1)Nc1ccc2c(c1)C[C@@]1(C2)C(=O)Nc2ncccc21 | 2.9 |
| CC1(C)NC[C@@H](c2cc(F)cc(F)c2)N(CC(=O)Nc2ccc3c(c2)C[C@@]2(C3)C(=O)Nc3ncccc32)C1=O | 4.35 |

1. C[C@@]1(c2cc(F)cc(F)c2)CNC2(CCCC2)C(=O)N1CC(=O)Nc1ccc2c(c1)C[C@@]1(C2)C(=O)Nc2ncccc21
2. CN1C[C@@](C)(c2cc(F)cc(F)c2)N(CC#Cc2ccc3c(c2)C[C@@]2(C3)C(=O)Nc3ncccc32)C(=O)C12CCCC2
3. CN1C[C@@](C)(c2cc(F)cc(F)c2)N(C/C=C/c2ccc3c(c2)C[C@@]2(C3)C(=O)Nc3ncccc32)C(=O)C12CCCC2
4. CN1C[C@@](C)(c2cc(F)cc(F)c2)N(CC(=O)Nc2ccc3c(c2)C[C@@]2(C3)C(=O)Nc3ncccc32)C(=O)C12CCCC2
Place the items in sequence of falling Ratio AUC. A ranking is expressed here by listing the labels in the requested order.
1, 4, 2, 3

1. CN1C[C@@](C)(c2cc(F)cc(F)c2)N(CC(=O)Nc2ccc3c(c2)C[C@@]2(C3)C(=O)Nc3ncccc32)C(=O)C1(C)C
2. CN1C[C@@](C)(c2cc(F)cc(F)c2)N(CC#Cc2cnc3c(c2)C[C@@]2(C3)C(=O)Nc3ncccc32)C(=O)C12CCCC2
Which value of Ratio AUC is numerically greater: that of 1 or that of 2 ? // return label of chosen record
1
(1: 4.79%, 2: 2.64%)
